# assay-info: Pharmacokinetics in male cynomolgus monkeys
# Format: in vivo
# condition-context: cynomolgus monkey, plasma, IV 1 mg/kg

molecule | MRT (h)
COc1cc(Nc2nc3n(n2)CCCC[C@H]3c2ccc(F)cc2)ccc1-n1cnc(Cl)c1 [BMS-869780] | 3.8

====

# assay-info: Pharmacokinetics in male Sprague-Dawley rats
# Format: in vivo
# condition-context: plasma, Rat, IV 1 mg/kg
# Procedure: Male Sprague-Dawley (SD) rats (300–350 g) were fasted overnight, and three per group received BMS-869780 either as an intravenous (IV) infusion in PEG400 : ethanol (90 : 10 w/w) at 1 mg/kg over 5 min via the jugular vein or as nanosuspension (d50 ca. 300 nm) by oral gavage at 5 mg/kg in Povidone K-30 : sodium lauryl sulfate : water (2.5 : 0.12 : 97.38 w/w/w/w). […] In male beagle dogs, the PK of BMS-869780 was evaluated in a cross-over study design with a one-week washout between treatments. […]
readout-label: MRT (h)

smiles-text | value-reported
COc1cc(Nc2nc3n(n2)CCCC[C@H]3c2ccc(F)cc2)ccc1-n1cnc(Cl)c1 | 1

====

# assay-info: Plasma exposure in rat 4-day oral dosing experiment
# Type: in vivo
# condition-context: female, rat, plasma, po, 10 mg/kg, Female, Day 3
# Description: All experimental procedures with animals followed National Institutes of Health guidelines and were authorized by and in compliance with policies of the Bristol-Myers Squibb Animal Use and Care Committee. Mice and rats were housed with a 6:00 AM to 6:00 PM light/dark cycle and allowed free access to food and water. […]

smiles-text | Cmax (nM)
COc1cc(Nc2nc3n(n2)CCCC[C@H]3c2ccc(F)cc2)ccc1-n1cnc(Cl)c1 | 2600

====

# assay-info: Pharmacokinetics in male cynomolgus monkeys
# Type: in vivo
# condition-context: cynomolgus monkey, plasma, IV 1 mg/kg
readout-label: half-life

molecule | value-reported
COc1cc(Nc2nc3n(n2)CCCC[C@H]3c2ccc(F)cc2)ccc1-n1cnc(Cl)c1 [BMS-869780] | 4 h

====

# assay-info: Plasma exposure in rat 4-day oral dosing experiment
# Type: in vivo
# condition-context: male, rat, plasma, po, 10 mg/kg, Male, Day 3
readout-label: Tmax (h)

smiles-text | unit-symbol | value-reported
COc1cc(Nc2nc3n(n2)CCCC[C@H]3c2ccc(F)cc2)ccc1-n1cnc(Cl)c1 | h | 5

====

# assay-info: Plasma exposure in rat 4-day oral dosing experiment
# Assay type: in vivo
# condition-context: female, rat, plasma, po, 100 mg/kg, Female, Day 1

smiles-text | unit-symbol | Tmax
COc1cc(Nc2nc3n(n2)CCCC[C@H]3c2ccc(F)cc2)ccc1-n1cnc(Cl)c1 | h | 24

====

# assay-info: Pharmacokinetics in male beagle dogs
# Format: in vivo
# condition-context: plasma, Dog, PO suspension 5 mg/kg

compound | AUC(0-t) (µM·h)
COc1cc(Nc2nc3n(n2)CCCC[C@H]3c2ccc(F)cc2)ccc1-n1cnc(Cl)c1 [BMS-869780] | 4.55

====

# assay-info: Plasma exposure in rat 4-day oral dosing experiment
# Format: in vivo
# condition-context: female, rat, plasma, po, 100 mg/kg, Female, Day 1; read-out: AUC (0–24 h)
readout-label: AUC(0-t) (µM·h)

smiles-text | value-reported
COc1cc(Nc2nc3n(n2)CCCC[C@H]3c2ccc(F)cc2)ccc1-n1cnc(Cl)c1 | 206

====

# assay-info: Plasma exposure in rat 4-day oral dosing experiment
# Type: in vivo
# condition-context: female, rat, plasma, po, 10 mg/kg, Female, Day 1
readout-label: Cmax (nM)

compound | readout-label | value-reported
COc1cc(Nc2nc3n(n2)CCCC[C@H]3c2ccc(F)cc2)ccc1-n1cnc(Cl)c1 [BMS-869780] | Cmax | 2900

====

# assay-info: Plasma exposure in rat 4-day oral dosing experiment
# Type: in vivo
# condition-context: male, rat, plasma, po, 100 mg/kg, Male, Day 1
readout-label: Cmax (µM)

molecule | readout-label | value-reported
COc1cc(Nc2nc3n(n2)CCCC[C@H]3c2ccc(F)cc2)ccc1-n1cnc(Cl)c1 [BMS-869780] | Cmax | 7.7

====

# assay-info: Plasma exposure in rat 4-day oral dosing experiment
# Assay type: in vivo
# condition-context: male, rat, plasma, po, 10 mg/kg, Male, Day 3

smiles-text | Cmax (nM)
COc1cc(Nc2nc3n(n2)CCCC[C@H]3c2ccc(F)cc2)ccc1-n1cnc(Cl)c1 | 1900

====

# assay-info: Plasma exposure in rat 4-day oral dosing experiment
# Format: in vivo
# condition-context: female, rat, plasma, po, 30 mg/kg, Female, Day 3

smiles-text | Cmax
COc1cc(Nc2nc3n(n2)CCCC[C@H]3c2ccc(F)cc2)ccc1-n1cnc(Cl)c1 | 14.4 µM
